Test system: SNB-75 CNS
test: NCI-60 one-dose screen, 48 h (100 = growth as untreated, 0 = no growth, -100 = all killed)
test conditions: 10 µM unless noted
Compounds without any hit were thinned out: in the full panel of roughly 83,000, 20% have a hit.
Decide using growth: a value greater than or equal to 90% is Condition met, a smaller one is Condition not met.

Solved entries:
| test smiles | qualitative label |
| --- | --- |
| C=C1C(=O)O[C@H]2[C@H]1CC/C(COC(=O)CCC(=O)NCCOCCOCC(=O)Nc1ccc(OC)c(C(N)=O)c1O)=C\CC[C@@]1(C)O[C@@H]21 | Condition met |
| Cc1ccc(-c2nc(N3CCN(CC(=O)Nc4ccc(Cl)c(C(F)(F)F)c4)CC3)c3ccccc3n2)cc1 | Condition not met |
| Cc1cccc2c1S/C(=C/c1ccc([N+](=O)[O-])cc1)C2=O | Condition not met |

# input for lookup
Prompt: Hi team, for CC(=O)c1ccc(Nc2nc(C(C)=O)c(C)s2)cc1 , is the recorded growth at or above 90%?
Response: Condition not met
